test system: MS2 coat protein; assay: apparent KD of MS2 coat protein; designed switch direction (-1 OFF switch, 1 ON switch): 1; higher = weaker reporter binding; conditions: input ligand: FMN 200 uM
# key: entry, value: apparent KD of MS2 coat protein
Express the result in nM but write the number alone.

# SEQUENCE TEXT, TARGET DESC, NUMERIC READOUT
measured = [
    ("UUAAUGAUGAUAGGAUAUACAUGAGGAAUUCUCGUAGAAGGAUCAUGACAUGAGGAUCACCCAUGUAUCGCUCGAAAGAGCGUA [Mat - Same State NG 1 - JL mod - D33] (Eterna round: R96, puzzle: Same State NG 1)", "MS2 coat protein", 570),
]

Reported apparent KD of MS2 coat protein, sequence GUUACAUGAGGAUCACCCAUGUGUGUGUGGGAGUGAGUGGCUUAGGAUAUCUAUGAUUUUAGUUAAGAGAAGGGAGAUUGUUGU [SS-NG3-LRO05] (Eterna round: R96, puzzle: Same State NG 3) : ____
554
